Assay: Toxicity against mouse 3T3 cells by resazurin assay
Type: cell-based
Conditions: NIH3T3 cells
Quick reference for EC50 among some compounds

| smiles-input | reported-metric | readout-value |
| --- | --- | --- |
| c1ccc(-c2ccc(Cn3cncc3CNc3ccccc3-c3ccccc3)cc2)cc1 | EC50 | > 10 µM |
| N#Cc1ccc(NCc2cncn2Cc2ccc(-c3ccccc3)cc2N)cc1-c1ccccc1 | EC50 | > 1 µM |
| Clc1ccc(Cn2cncc2CNc2cccc(-c3ccccc3)c2)cc1 | EC50 | 10 µM |

Look at this compound and give its reported EC50. `COC(=O)c1ccc(NCc2cncn2Cc2cccc([N+](=O)[O-])c2)cc1-c1ccccc1`
> 10 µM

Look at this compound and give its reported EC50. `COC(=O)c1ccc(NCc2cncn2Cc2ccc(C)cc2)cc1-c1ccccc1`
50 µM

Look at this compound and give its reported EC50. `Nc1cc(-c2ccccc2)ccc1Cn1cncc1CNc1ccc(-c2nc3ccccc3s2)c(-c2ccccc2)c1`
> 1 µM
